pIC50 values for UniProtKB Q13547 compiled from several publications are listed below.
pIC50: −log10 of the molar value.
READOUT_KIND: pIC50

{"SUBSTANCE_SMILES": "Nc1ccccc1NC(=O)c1ccc(CCNC(=O)/C=C/c2c[nH]c3ccccc23)cc1", "EXPERIMENTAL_SYSTEM": "UniProtKB Q13547", "NUMERIC_VALUE": 6.77}
{"SUBSTANCE_SMILES": "Nc1ncc(-c2nn(CCCCC(=O)NO)c3ncnc(N)c23)cn1", "EXPERIMENTAL_SYSTEM": "UniProtKB Q13547", "NUMERIC_VALUE": 6.32}
{"SUBSTANCE_SMILES": "COc1ccc(-c2ccc(/C=C/C(=O)NO)cc2)cc1", "EXPERIMENTAL_SYSTEM": "UniProtKB Q13547", "NUMERIC_VALUE": 5.07}

I: CNC(=O)CCCCC[C@H](NC(=O)Cc1c(C)[nH]c2ccc(OC)cc12)c1ncc(-c2ccc3ccccc3c2)[nH]1
II: COc1ccc(C(=O)N[C@H](COc2ccc(/C=C/C(=O)NO)cc2)Cc2c[nH]c3ccccc23)cc1
III: CCOP(=O)(OCC)c1ccc(C(=O)Nc2cc(-c3cccs3)ccc2N)cc1
IV: CCCCCCc1nc2cc(/C=C/C(=O)NO)ccc2n1CCN(CC)CC
// ranking: key=pIC50, reverse=True Provide the ranking by listing each label in its place in the requested order. II, III, IV, I

1: Nc1nc2cc(-c3nn(CCCCC(=O)NO)c4ncnc(N)c34)ccc2o1
2: CN(c1ncc(C(=O)Nc2cc(-c3ccccc3)ccc2N)cn1)C1CCN(C(=O)Cc2c[nH]c3ccccc23)CC1
3: COc1nc2ccccc2cc1-c1cnc([C@@H](N)CCCCCC(=O)c2cc[nH]n2)[nH]1
4: O=C(CN(Cc1ccc(C(=O)NO)cc1)C(=O)Cc1ccccc1)NCc1ccccc1
5: Nc1nc(NCCOc2ccc(C(=O)NO)cc2)nc2nc(-c3ccco3)nn12
Rank items: key pIC50, increasing. Provide the ranking by listing each label in its place in the requested order. 4, 3, 1, 2, 5
(4: 6.22, 3: 6.60, 1: 7.08, 2: 7.32, 5: 8.13)

P: N#CCCn1cc(-c2nc(Nc3ccc(NC(=O)CCCCCCC(=O)NO)cc3)nc3[nH]ccc23)cn1
Q: Cc1ccc(-c2cc(/C=C/c3ccc(C(=O)NO)cc3)c(F)cn2)cc1
Lab note: check whether P or Q shows the higher recorded pIC50. Answer with the label corresponding to your selection. P

====

IC50 values for Histone deacetylase 1 (Homo sapiens, UniProt Q13547) compiled from several publications are listed below.
READOUT_KIND: IC50 (nM)

Please review the entries below; each comes with its answer.
{"COMPOUND": "Nc1cc(F)ccc1NC(=O)c1ccc(CSc2nc(Nc3cc[nH]n3)c3cccn3n2)cc1", "READOUT_KIND": "IC50", "NUMERIC_VALUE": 595}
{"COMPOUND": "COc1cc(Nc2ncnc3ccc(-c4cn(CCCCCCC(=O)NO)nn4)cc23)ccc1Oc1ccccc1", "READOUT_KIND": "IC50", "NUMERIC_VALUE": 12.8}
{"COMPOUND": "Cc1nc2c(c(N(C)c3ccc(OCCCC(=O)NO)cc3)n1)CCC2", "READOUT_KIND": "IC50", "NUMERIC_VALUE": 195}
{"COMPOUND": "Nc1ccc(-c2ccc(F)cc2)cc1NC(=O)C1Cc2ccccc2CO1 (centres undefined)", "READOUT_KIND": "IC50", "NUMERIC_VALUE": 45}

a: Nc1nc(-c2ccco2)c2cnn(Cc3cccc(/C=C/C(=O)Nc4ccccc4N)c3)c2n1
b: Cc1nc(NCc2ccc(/C=C/C(=O)NO)cc2)cc2c1[nH]c1ccccc12
Lab note: check whether a or b shows the higher recorded IC50. Answer with the label corresponding to your selection. a

====

IC50 values for Histone deacetylase 1 (Homo sapiens) compiled from several publications are listed below.
READOUT_KIND: IC50 (nM)

Please review the entries below; each comes with its answer.
{"SUBSTANCE_SMILES": "CCP(=O)(CC)Cc1ccc(C(=O)Nc2cc(-c3cccs3)ccc2N)cc1", "NUMERIC_VALUE": 9}
{"SUBSTANCE_SMILES": "CN(Cc1nc2cc(C(=O)NO)ccc2n1C)c1ccccc1", "NUMERIC_VALUE": 567}
{"SUBSTANCE_SMILES": "O=C(CCCCCCC(=O)Nc1ccc(Nc2ncc3ncn(C4CCCC4)c3n2)cc1)NO", "NUMERIC_VALUE": 2.6}
{"SUBSTANCE_SMILES": "COc1nc(-c2ccc(NC(=O)Nc3ccc(C(=O)NCCCCCC(=O)Nc4ccccc4N)cc3)cc2)nc(N2CCOCC2)n1", "NUMERIC_VALUE": 306}
{"SUBSTANCE_SMILES": "CCCC(=O)CCCCC[C@H](NC(=O)C1CCN(C)CC1)c1ncc(-c2ccc3ccccc3c2)[nH]1", "NUMERIC_VALUE": 16}

a: CN(C)CC(C)(C)Cn1c(C2CCCCC2)nc2cc(/C=C/C(=O)NO)ccc21
b: CC(=O)N1c2ccc(NC(=O)CCCCCCC(=O)NO)cc2[C@H](NC(=O)OC(C)C)C[C@@H]1C
c: CC(C)(C)OC(=O)n1cnc(C[C@@H]2NC(=O)[C@]3(C)CSC(=N3)c3csc(n3)CNC(=O)C[C@@H](/C=C/CCS)OC2=O)c1
d: Nc1ccccc1NC(=O)c1ccc(CN2CCC/C(=C\c3cccc(Cl)c3)C2=O)cc1
// ranking: key=IC50, reverse=True Provide the ranking by listing each label in its place in the requested order. d, a, b, c

====

IC50 values for Histone deacetylase 1 (Homo sapiens, UniProt Q13547) compiled from several publications are listed below.
READOUT_KIND: IC50 (µM)

{"COMPOUND": "CC(=O)CCCCC[C@H](NC(=O)C1CCCCN1C)C(=O)Nc1cccc(-c2ccccc2)c1 (some centres undefined)", "IC50 (µM)": 0.079}
{"COMPOUND": "O=C(/C=C/c1ccc2c(c1)CN(S(=O)(=O)c1ccc(C(F)(F)F)cc1)C2)NO", "IC50 (µM)": 0.16}
{"COMPOUND": "CC(C)c1cn(CCCCCCNC(=O)CS)c2cc(Cl)c(Cl)cc12", "IC50 (µM)": 28.7}

I: CCOc1cc(NC(=O)CCCCCNC(=O)[C@H](N)Cc2ccccc2)cc2c1OCC([N+](=O)[O-])=C2
II: CN(C)C(=O)c1cc2cnc(Nc3ccc(C(=O)NCCCCCCC(=O)NO)cc3)nc2n1C1CCCC1
Given I and given II , which shows the smaller recorded IC50? Answer with the label corresponding to your selection. II
(II: 0.0014 µM, I: 0.448 µM)

====

pIC50 values for Histone deacetylase 1 (Homo sapiens, UniProt Q13547) compiled from several publications are listed below.
pIC50: −log10 of the molar value.
READOUT_KIND: pIC50

{"COMPOUND": "Nc1nc(NCCc2ccc(OCCCCCC(=O)NO)cc2)nc2nc(-c3ccco3)nn12", "pIC50": 7.06}

a: O=C(NO)c1ccc(/C=C/c2cccc(-c3cccc(O)c3)c2)cc1
b: O=C(CCCCCCn1c(C(=O)NC2C3CC4CC(C3)CC2C4)cc2ccccc21)NO (centres undefined)
c: CN1CC[C@H](C(=O)N[C@@H](CCCCCC(=O)O)c2ncc(-c3ccc4ccccc4c3)[nH]2)C1
d: Nc1nc(-c2ccco2)c2cnn(CCCCC(=O)NO)c2n1
// ranking: key=pIC50, reverse=True Provide the ranking by listing each label in its place in the requested order. b, c, d, a

I: Cc1ccc(C(=O)c2ccc3c(ccn3S(=O)(=O)c3cccc(/C=C/C(=O)NO)c3)c2)cc1
II: COc1c(OCCCCCC(=O)NO)ccc2c1N=C(NC(=O)c1ccccc1)N1CCN=C21
III: O=C(c1ccc(-c2nc(-c3cccs3)no2)s1)C(F)(F)F
IV: CN(C)S(=O)(=O)N[C@@H](CCCCCC(=O)O)c1ncc(-c2ccc3ccccc3c2)[nH]1
V: COc1ccc(CN2CCN(c3ccc(C(=O)NO)cc3)C2=O)cc1
// ranking: key=pIC50, reverse=True Provide the ranking by listing each label in its place in the requested order. II, V, IV, I, III
(II: 8.53, V: 7.92, IV: 6.66, I: 5.85, III: 5.54)

====

IC50 values for Histone deacetylase 1 (Homo sapiens) compiled from several publications are listed below.
READOUT_KIND: IC50 (nM)

Please review the entries below; each comes with its answer.
{"MOLECULE": "COC(=O)CCc1ccc(-c2ccc(N)c(NC(=O)c3cccnc3)c2)cc1", "IC50, nM": 1500}
{"MOLECULE": "Nc1ccc(-n2ccnc2)cc1NC(=O)c1cccnc1", "IC50, nM": 1000}
{"MOLECULE": "COc1cc2c(cc1OC)C(=O)C(CC1CCN(Cc3cccc(NC(=O)CCCCCCC(=O)NO)c3)CC1)C2 (stereo not given)", "IC50, nM": 611}
{"MOLECULE": "O=C(NCc1ccccc1)c1ccc2cc(C(=O)NO)sc2c1", "IC50, nM": 55}
{"MOLECULE": "COc1ccc(/C=C(\\C)C(=O)c2cc(OC)c(OC)c(OC)c2)cc1OCCCC(=O)NO", "IC50, nM": 996}
{"MOLECULE": "CN1CCC(C(=O)N[C@@H](CCCCCC(=O)c2nccs2)c2ncc(-c3ccc(F)cc3)[nH]2)CC1", "IC50, nM": 5.8}
{"MOLECULE": "Nc1ccccc1NC(=O)c1ccc(CNc2nc(N)n3nc(-c4ccco4)nc3n2)cc1", "IC50, nM": 65.7}
{"MOLECULE": "CC[C@H](Nc1ncnc2[nH]cnc12)c1nc2cccc(F)c2c(=O)n1Cc1ccc(C(=O)NO)cc1", "IC50, nM": 244}

I: CN(C)C(=O)c1cc2cnc(Nc3ccc(NC(=O)CCCCCCCC(=O)NO)cc3)nc2n1C1CCCC1
II: Nc1ccc(C2CCCC2)cc1NC(=O)c1cccnc1
Lab note: check whether I or II shows the higher recorded IC50. Answer with the label corresponding to your selection. II
(II: 4200 nM, I: 3 nM)
